Answer each item with its documented IC50.
Target: Glucagon receptor (Homo sapiens)
Sequence (P47871 whole entry): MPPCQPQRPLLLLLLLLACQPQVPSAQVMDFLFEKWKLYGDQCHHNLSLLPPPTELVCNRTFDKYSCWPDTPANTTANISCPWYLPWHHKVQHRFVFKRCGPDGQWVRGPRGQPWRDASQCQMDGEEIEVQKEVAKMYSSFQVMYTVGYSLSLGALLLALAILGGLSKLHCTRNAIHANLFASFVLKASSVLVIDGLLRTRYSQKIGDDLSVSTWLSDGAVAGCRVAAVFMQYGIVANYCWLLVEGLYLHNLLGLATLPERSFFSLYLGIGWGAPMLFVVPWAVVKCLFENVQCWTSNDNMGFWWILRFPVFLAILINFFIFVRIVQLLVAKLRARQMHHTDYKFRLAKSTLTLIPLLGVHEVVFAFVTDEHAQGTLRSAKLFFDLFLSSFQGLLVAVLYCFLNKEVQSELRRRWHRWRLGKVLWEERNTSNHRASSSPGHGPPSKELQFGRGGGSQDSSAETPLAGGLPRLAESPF
Assay: Antagonist activity against human GCGR expressed in CHO cells assessed as glucagon-induced cAMP accumulation
Format: functional, cell-based
Numbers only, in µM.

CCCOc1ccc2nc(N(Cc3ccc(C(=O)Nc4nnn[nH]4)cc3)[C@H]3CC[C@H](C(C)(C)C)CC3)n(C)c2c1
0.008
Cn1c(N(Cc2ccc(C(=O)Nc3nnn[nH]3)cc2)[C@H]2CC[C@H](C(C)(C)C)CC2)nc2cc(OC3CCCC3)ccc21
0.009
Cn1c(N(Cc2ccc(C(=O)Nc3nnn[nH]3)cc2)c2ccc(C(C)(C)C)cc2)nc2ccccc21
0.81
CCOc1ccc2c(c1)nc(N(Cc1ccc(C(=O)Nc3nnn[nH]3)cc1)[C@H]1CC[C@H](C(C)(C)C)CC1)n2C
0.022

Then this molecule:
// returns IC50 for Cc1cc2nc(N(Cc3ccc(C(=O)Nc4nnn[nH]4)cc3)[C@H]3CC[C@H](C(C)(C)C)CC3)n(C)c2cc1C with Glucagon receptor (Homo sapiens); value = 0.018

FYI, the data here is from ChEMBL document CHEMBL1157483.
